binders and their reported Kd
# TARGET SYSTEM: T1, sIL-6R (soluble IL-6 receptor; SBH Sciences) (human, UniProt P08887 20-365)
# T1 construct: also called human IL-6R
# T1 sequence: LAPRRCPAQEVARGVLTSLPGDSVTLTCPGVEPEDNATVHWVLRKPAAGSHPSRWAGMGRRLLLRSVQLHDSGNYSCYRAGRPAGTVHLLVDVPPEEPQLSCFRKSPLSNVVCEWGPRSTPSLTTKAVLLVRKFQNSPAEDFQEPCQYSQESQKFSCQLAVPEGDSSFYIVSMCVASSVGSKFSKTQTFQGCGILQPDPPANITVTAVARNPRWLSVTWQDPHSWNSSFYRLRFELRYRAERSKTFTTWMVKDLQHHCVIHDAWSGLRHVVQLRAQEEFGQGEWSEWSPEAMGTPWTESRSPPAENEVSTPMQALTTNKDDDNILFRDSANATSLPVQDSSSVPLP
# PROCEDURE TEXT: SPR (BIAcore 3000), antibody on chip, sIL-6R analyte, 25 C
# Protocol: All SPR measurements were performed on a BIAcore 3000 instrument (GE Biosciences, Piscataway, N.J.). BIAcore Software-BIAcore 3000 Control Software V3.2 was used for the operation and control of the BIAcore 3000 instrument. […] Data was analyzed by using the Kinetics Wizard and the manual fitting programs that are both included with the BiaEvaluation Software V4.1.
Output spec: scalar in nM, unitless text.

1. 69# (antibody, human IgG1, kappa, V domains shown, also called Sample # 69) VH: QVQLQESGPGLVRPSQTLSLTCTVSGYSITSDHAWSWVRQPPGRGLEWIGFISYSGMTTYNPSLKSRVTMLRDTSKNQFSLRLSSVTAADTAVYYCARCLARTTAIDFWGQGSLVTVSS VL: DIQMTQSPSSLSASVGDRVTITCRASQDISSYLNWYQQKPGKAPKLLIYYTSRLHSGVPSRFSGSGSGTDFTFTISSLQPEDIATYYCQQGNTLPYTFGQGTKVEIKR = 0.286

We now examine a further binder.
Query block: Name the reported Kd value associated with the binder 227# (antibody, human IgG1, kappa, V domains shown, also called Sample # 227) VH: QVQLQESGPGLVRPSQTLSLTCTVSGYSITSDHAWSWVRQPPGRGLEWIGYISYSGMITYNPSLKSRVTMLRDTSKNQFSLRLSSVTAADTAVYYCARSLARATAMDYWGQGSLVTVSS VL: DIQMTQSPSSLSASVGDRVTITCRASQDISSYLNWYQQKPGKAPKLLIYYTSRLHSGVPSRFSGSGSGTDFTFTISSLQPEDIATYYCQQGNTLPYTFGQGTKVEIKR
Result block: 0.477
